assay: small molecules captured by biotinylated probe aFSTL3 – biochemical, small-molecule microarray, fluorescence 635/667, stem cell growth factor project, primary screen (AID 1064); conditions: higher = more signal;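 note: measures binding of the biotinylated anti-FSTL3 antibody to printed compounds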
Classification field: enter 1 for composite z-score values not below 0.7, -1 for values below it.

MOLECULE	GROUP_LABEL
O=C1O[C@H](c2ccccc2)[C@H](c2ccccc2)N2[C@H]1[C@@H](C(=O)N1CCN(c3ncccn3)CC1)[C@]1(C(=O)Nc3ccc(C#CCCO)cc31)[C@H]2c1ccc(OCCO)cc1	-1
CCOC(=O)C1=CC[C@@H](c2cccc(Br)c2)N(S(=O)(=O)c2ccc(C)cc2)[C@H]1c1ccc([N+](=O)[O-])cc1	-1
CCCC=C(CCC)[C@@H](NC(=O)Cc1ccccc1)c1ccc(C(=O)OC)cc1	1
COCCCNC(=O)[C@@]1(Cc2ccccc2I)c2ccccc2C(=O)N(Cc2ccccc2Cl)[C@H]1c1ccc(CO)cc1	-1
CN(C)CCCNC(=O)[C@@]1(Cc2ccccc2I)c2ccccc2C(=O)N(Cc2ccccc2Cl)[C@H]1c1ccc(CO)cc1	1
COC(=O)c1ccc(OC)c(/C=C\CC(CCc2ccccc2)OC(C)=O)c1 (stereo not drawn)	-1
CCCc1cc2c(n1Cc1ccc(OC)cc1)C(C)C1CN(C(=O)c3ccccc3)C(C)(C(=O)OC)C21 (stereo not drawn)	1

---

Below, each of the compounds is paired with its reported composite z-score value.
molecular target: Albumin (Bos taurus) (UniProt P02769); assay: compounds binding labelled BSA control protein – biochemical, small-molecule microarray, Alexa647 label, 635/667 nm fluorescence, artefact control for SMM control protein annotation, profiling panel (AID 1118); details: BSA-A647 binding, fluorescence 635 nm, higher = more signal;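 note: score merges 667 nm emission intensity and signal-to-noise per printed compound spot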
Sequence (P02769 whole entry, looked up): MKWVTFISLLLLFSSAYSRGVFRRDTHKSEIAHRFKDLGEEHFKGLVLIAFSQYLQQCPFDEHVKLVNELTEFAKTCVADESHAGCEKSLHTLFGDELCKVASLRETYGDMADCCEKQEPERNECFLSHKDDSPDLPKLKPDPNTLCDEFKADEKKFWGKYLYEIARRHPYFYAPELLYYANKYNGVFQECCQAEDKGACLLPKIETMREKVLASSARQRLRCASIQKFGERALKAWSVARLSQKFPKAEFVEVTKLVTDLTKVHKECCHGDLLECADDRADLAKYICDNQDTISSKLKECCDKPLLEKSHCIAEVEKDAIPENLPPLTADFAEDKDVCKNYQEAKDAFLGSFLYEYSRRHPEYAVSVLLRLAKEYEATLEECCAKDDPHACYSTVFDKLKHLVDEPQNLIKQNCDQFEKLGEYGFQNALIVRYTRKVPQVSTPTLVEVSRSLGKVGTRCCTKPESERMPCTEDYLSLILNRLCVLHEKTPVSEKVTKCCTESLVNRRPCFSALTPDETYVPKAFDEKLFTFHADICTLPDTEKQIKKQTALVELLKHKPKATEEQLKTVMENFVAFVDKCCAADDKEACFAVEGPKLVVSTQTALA

COMPOUND	SYSTEM	composite z-score
C=CCN1C(=O)[C@@]2(O[C@@H](CCO)[C@H]([Si](C)(C)c3ccc(OC)cc3)[C@H]2C)c2cc(NC(=O)[C@H](C)O)ccc21	Albumin (Bos taurus) (UniProt P02769)	0.489
CN(C)C(=O)[C@@]1(CCC(=O)OC(C)(C)C)COC(c2ccc(OCCCO)cc2)=N1	Albumin (Bos taurus) (UniProt P02769)	0.655
COCCOC(=O)N1C(=O)[C@@]2(c3cc(C#CCNC(N)=O)ccc31)[C@H](C(=O)N1CCCCCCC1)[C@H]1C(=O)O[C@H](c3ccccc3)[C@H](c3ccccc3)N1[C@@H]2c1ccc(OCCO)cc1	Albumin (Bos taurus) (UniProt P02769)	0.27
COc1cc(C(O)C2C=CC3C(=O)NC(=O)C3N2Nc2ccc(Cl)cc2Cl)cc(OC)c1OC (configuration not stated)	Albumin (Bos taurus) (UniProt P02769)	0.254
C=CC[C@@]1(C(=O)NCCN2CCOCC2)N=C(c2ccc(OCCCO)cc2)O[C@@H]1c1ccccc1	Albumin (Bos taurus) (UniProt P02769)	0.262
CO[C@H]1O[C@H](CO)[C@@H](OC(=O)c2ccc(Br)cc2)[C@@H]2OC(=O)[C@H](Cc3cccc(Br)c3)C/C=C/C[C@@H](Cc3cccc(Br)c3)C(=O)O[C@@H]12	Albumin (Bos taurus) (UniProt P02769)	0.695
O=C1NC(=O)C2C1C=CC(C(O)CCc1ccccc1)N2Nc1ccccn1 (configuration not stated)	Albumin (Bos taurus) (UniProt P02769)	0.558

---

assay: plasmodial surface anion channel blockers, osmotic lysis – cell-based, P. falciparum Indochina, OD700, 2 h, primary screen (AID 1155);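 note: lysis reports solute entry through the parasite surface anion channel PSAC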; settings: P. falciparum Indochina infected erythrocytes, called active from +8 up or from −8 down
Activity calls are given as the source filed them.
Outcome codes: active, inactive

COMPOUND	GROUP_LABEL
CCCC[C@@H](O)C1=C(COc2ccccc2)Cn2c(=O)n(-c3ccccc3)c(=O)n2[C@H]1CO	inactive
COC(=O)[C@@]1(Cc2ccccc2N=[N+]=[N-])N=C(c2ccc(OCCCO)cc2)O[C@H]1c1ccccc1	active
COC(=O)C(CC#Cc1ccc2c(c1)[C@]1(C(=O)N2)[C@H](c2ccccc2OCCO)N2[C@H](c3ccccc3)[C@H](c3ccccc3)OC(=O)[C@H]2[C@@H]1C(=O)Nc1nc2ccccc2s1)C(=O)OC	inactive
CC(C)=CCCC(C)=CC(O)C1C=CC2C(=O)N(c3ccccc3)C(=O)C2N1Nc1ccc([N+](=O)[O-])cc1 (configuration not stated)	inactive
[N-]=[N+]=NCc1ccccc1C[C@]1(C(=O)NCCN2CCOCC2)N=C(c2ccc(OCCCO)cc2)O[C@H]1c1ccccc1	inactive
C=C(C)[C@@H]1CC=C(C(O)C2C=CC3C(=O)N(C4CCCCC4)C(=O)C3N2Nc2ccc(OC)cc2)CC1 (some centres not stated)	inactive
C=CCOC(=O)[C@@H]1[C@H]2C(=O)O[C@H](c3ccccc3)[C@H](c3ccccc3)N2[C@H](c2ccc(OCCOC(=O)[C@H]3C[C@H]4C(=O)N[C@@H](Cc5ccccc5)C(=O)N4[C@H]3c3cccc(OCCO)c3)cc2)[C@@]12C(=O)Nc1ccc(I)cc12	inactive

---

biological target: Torsin-1A (Homo sapiens) (UniProt O14656); experiment: TOR1A wild-type binding on microarray – cell lysate, small-molecule microarray, lysate, 635/667 nm, primary screen (AID 1149); settings: COS7 hTOR1A-WT lysate, 635 nm fluorescence, higher = more signal
Sequence (O14656 whole entry, looked up): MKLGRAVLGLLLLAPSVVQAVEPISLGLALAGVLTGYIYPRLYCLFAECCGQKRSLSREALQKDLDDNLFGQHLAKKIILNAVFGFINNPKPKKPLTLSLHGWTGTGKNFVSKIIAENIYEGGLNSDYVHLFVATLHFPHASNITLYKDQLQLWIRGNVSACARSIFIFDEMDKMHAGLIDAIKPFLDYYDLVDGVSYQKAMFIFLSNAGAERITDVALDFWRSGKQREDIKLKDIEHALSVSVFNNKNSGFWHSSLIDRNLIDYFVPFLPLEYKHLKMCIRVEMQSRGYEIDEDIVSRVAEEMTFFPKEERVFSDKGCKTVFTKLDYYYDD

COMPOUND	composite z-score
COc1cc2c(cc1OC)CN(C(=O)[C@@H]1[C@H]3C(=O)O[C@H](c4ccccc4)[C@H](c4ccccc4)N3[C@H](c3ccc(O)cc3)[C@@]13C(=O)Nc1ccc(C#CCNC(N)=O)cc13)CC2	-0.0899
C=C(COC)C(=O)CC[C@H](OC(=O)c1ccccc1-c1ccccc1C(=O)O)c1ccc(CO)o1	0.507
CC(C)CCC[C@@H](C)[C@H]1CC[C@@]2(C)C3=C(CC[C@]12C)[C@@]1(C)CC[C@H](OC(=O)c2ccc(N)cc2)C(C)(C)C1CC3 (stereo partly drawn)	0.315

---

assay: probe aLefty1 binding on compound microarray – biochemical, small-molecule microarray, 635/667 nm fluorescence, primary screen (AID 1153); details: higher = more signal;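 note: score merges spot fluorescence with signal-to-noise ratio from the scanned slide images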
Collected composite z-score values appear next to each entry.

COMPOUND	composite z-score
CN1C(=O)C2C=CC(C(O)COCc3ccccc3)N(Nc3ccccc3)C2C1=O (stereo not drawn)	0.167
COCCOC(=O)N1C(=O)[C@@]2(c3cc(C#CCCO)ccc31)[C@H](C(=O)N1CCc3cc(OC)c(OC)cc3C1)[C@H]1C(=O)O[C@H](c3ccccc3)[C@H](c3ccccc3)N1[C@@H]2c1ccc(OCCO)cc1	0.113
C/C=C/[C@@H](CCn1cc([C@H](O)c2ccccc2)nn1)[Si](C)(C)c1ccc(OC)cc1	0.121
Cc1ccccc1C(O)C1C=CC2C(=O)N(Cc3ccccc3)C(=O)C2N1n1cnnc1 (stereo not drawn)	0.0722
CCCCC=C[C@@H](NC(=O)CCc1ccccc1)c1ccccc1	0.396
C=CCC(OC(C)=O)[C@@H]1[C@@H](N(Cc2ccc(-c3cccc(C(F)(F)F)c3)o2)C(=O)c2cccc3ccccc23)c2cc(OCCCO)ccc2N1C(=O)c1ccc(-c2ccccc2)cc1 (stereo partly drawn)	-0.012
C=C(COC)C(=O)CC[C@H](OC(=O)c1ccccc1-c1ccccc1C(=O)O)c1ccc(OCCO)cc1	0.134
COC(=O)[C@@]1(Cc2ccc(OC)cc2)[C@H]2c3cc(C(=O)N(C)C)n(Cc4cc(C)n(C)n4)c3C[C@H]2CN1C(=O)c1ccccc1	0.396

---

assay: inhibition of PAO1 biofilm formation – strain PAO1, LB-PBS medium, absorbance 600 nm, primary screen (AID 1176); note: test concentration not given here; conditions: P. aeruginosa PAO1 growth/biofilm, A600, 12 h; higher = more signal
Threshold rule: z-score greater than or equal to 0.3 is met; below that, not met.

COMPOUND	GROUP_LABEL
N#Cc1ccc(NN2C(C(O)c3ccco3)C=CC3C(=O)N(c4ccccc4)C(=O)C32)cc1 (stereo not given)	met
COC(=O)[C@@]1(Cc2ccccc2)[C@H]2c3cc(C(=O)N4CCCC4)n(CCO)c3C[C@H]2CN1C(=O)c1ccccc1	not met
CO[C@H]1O[C@H](CO)[C@@H](OC(=O)Nc2ccc(C(F)(F)F)cc2)[C@H](OC(=O)Nc2ccccc2)[C@H]1OC(=O)Nc1ccccc1	not met
C=CC[C@@]1(C(=O)NCCN2CCOCC2)N=C(c2ccc(OCCCO)cc2)O[C@@H]1c1ccccc1	met
COc1ccc([Si](C)(C)[C@@H]2[C@@H](CCO)O[C@]3(C(=O)N(Cc4ccccc4)c4ccc(N5C(=O)COc6ccccc65)cc43)[C@H]2C)cc1	met
C[N+](C)(C)CCCC[C@@H]1NC(=O)[C@H]2C[C@@H](C(=O)NCCCCCCN)[C@@H](c3cccc(OCCO)c3)N2C1=O	met
CCCCC(CC)C(O)C1C=CC2C(=O)NC(=O)C2N1Nc1ccccn1 (stereo not given)	met
CN(C)CCCC[C@@H]1NC(=O)[C@H]2C[C@@H](C(=O)NCCCCCCNC(=O)CS)[C@@H](c3ccc(O)cc3)N2C1=O	not met
O=C1O[C@H](c2ccccc2)[C@H](c2ccccc2)N2[C@H]1[C@@H](C(=O)N1CCCCCCC1)[C@]1(C(=O)Nc3ccccc31)[C@H]2c1ccc(O)cc1	met
CCOC(=O)C[C@H]1[C@H](OC(=O)c2ccc(C(=O)c3ccccc3)cc2)[C@@H](NC(=O)C2CCCCC2)c2cc(OCCCO)ccc2N1C(=O)Cc1ccc(OC)cc1	not met
CC1CC/C=C\[C@H]2OC34C=CCN(Cc5ccccc5)C(=O)[C@H]3N(CCO)C(=O)[C@@H]4C2C(=O)O1 (stereo not given in full)	not met
COCCCNC(=O)[C@@]1(Cc2ccccc2N=[N+]=[N-])N=C(c2ccc(OCCCO)cc2)O[C@H]1c1ccccc1CN=[N+]=[N-]	met
C[N+](C)(C)CCCCCCNC(=O)[C@@H]1C[C@@H]2C(=O)NCC(=O)N2[C@@H]1c1ccc(O)cc1	not met
CN1C(=O)C2C=CC(C(O)c3ccc(F)cc3)N(N3CCCCC3)C2C1=O (stereo not given)	met
O=C(O)[C@]1(CCS(=O)(=O)c2ccccc2)N=C(c2ccc(OCCCO)cc2)O[C@@H]1c1ccccc1	not met
